meta.source: patent US8058242B2

# Test system: conscious rabbits
# MEASUREMENT_PROTOCOL: Blood pressure and heart rate in conscious rabbits, intravenous infusion dose-response (Example 8)
# EXPERIMENTAL_CONDITIONS: after a 2 hour recovery period; Table 10B
Positions of bridges follow the written chain, without caps; N, C: chain ends. Non-standard residues stand in square brackets, D forms with d. No end group written: not given here. pGlu = O=C1CC[C@@H](C(=O)O)N1; Sec = N[C@@H](C[SeH])C(=O)O; Nle = CCCC[C@H](N)C(=O)O
# Recovery (MAP) per record follows
Answer with the number, then the unit.

Some entries whose results are on file:
Which Recovery (MAP) is reported with conscious rabbits for this entry: SDSKISAGCFGFPLDRIGSVSGLGCNRIMQNPPKKFSGE (A portion of a natriuretic peptide) [TNPc A7S6] ? 66.8 mm Hg

Which Recovery (MAP) is reported with conscious rabbits for this entry: SDSKISKGCFGFPLDRIGSVSGLGCNRIMQNPPKKFSGE (A portion of a natriuretic peptide) [TNPc K7S6] ? 64.2 mm Hg

Which Recovery (MAP) is reported with conscious rabbits for this entry: SDSKIGNGUFGFPLDRIGSVSGLGUNRIMQNPPKKFSGE (SDSKIGNG[Sec]FGFPLDRIGSVSGLG[Sec]NRIMQNPPKKFSGE; ends and bridges not checked) [TNPc diseleno] ? 65.8 mm Hg

Which Recovery (MAP) is reported with conscious rabbits for this entry: ZSDSKIGNGCFGFPLDRIGSVSGLGCNRIMQNPPKKFSGE ([pGlu]SDSKIGNGCFGFPLDRIGSVSGLGCNRIMQNPPKKFSGE; disulfide 10-26 (inferred); not fully specified; ends not checked) [TNPc Z0] ? 72.2 mm Hg

New cases:
Which Recovery (MAP) is reported with conscious rabbits for this entry: SDSKIGNGCFGFPLDRIGSVSGLGCNRInQNPPKKFSGE (SDSKIGNGCFGFPLDRIGSVSGLGCNRI[Nle]QNPPKKFSGE; disulfide 9-25 (inferred); ends not checked) [TNPc Nle] ? 64.5 mm Hg
